ASSAY_SYSTEM: Mast/stem cell growth factor receptor Kit (Homo sapiens) (UniProt P10721);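 further: values given as mean inhibition of KIT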
Sequence (P10721 whole entry): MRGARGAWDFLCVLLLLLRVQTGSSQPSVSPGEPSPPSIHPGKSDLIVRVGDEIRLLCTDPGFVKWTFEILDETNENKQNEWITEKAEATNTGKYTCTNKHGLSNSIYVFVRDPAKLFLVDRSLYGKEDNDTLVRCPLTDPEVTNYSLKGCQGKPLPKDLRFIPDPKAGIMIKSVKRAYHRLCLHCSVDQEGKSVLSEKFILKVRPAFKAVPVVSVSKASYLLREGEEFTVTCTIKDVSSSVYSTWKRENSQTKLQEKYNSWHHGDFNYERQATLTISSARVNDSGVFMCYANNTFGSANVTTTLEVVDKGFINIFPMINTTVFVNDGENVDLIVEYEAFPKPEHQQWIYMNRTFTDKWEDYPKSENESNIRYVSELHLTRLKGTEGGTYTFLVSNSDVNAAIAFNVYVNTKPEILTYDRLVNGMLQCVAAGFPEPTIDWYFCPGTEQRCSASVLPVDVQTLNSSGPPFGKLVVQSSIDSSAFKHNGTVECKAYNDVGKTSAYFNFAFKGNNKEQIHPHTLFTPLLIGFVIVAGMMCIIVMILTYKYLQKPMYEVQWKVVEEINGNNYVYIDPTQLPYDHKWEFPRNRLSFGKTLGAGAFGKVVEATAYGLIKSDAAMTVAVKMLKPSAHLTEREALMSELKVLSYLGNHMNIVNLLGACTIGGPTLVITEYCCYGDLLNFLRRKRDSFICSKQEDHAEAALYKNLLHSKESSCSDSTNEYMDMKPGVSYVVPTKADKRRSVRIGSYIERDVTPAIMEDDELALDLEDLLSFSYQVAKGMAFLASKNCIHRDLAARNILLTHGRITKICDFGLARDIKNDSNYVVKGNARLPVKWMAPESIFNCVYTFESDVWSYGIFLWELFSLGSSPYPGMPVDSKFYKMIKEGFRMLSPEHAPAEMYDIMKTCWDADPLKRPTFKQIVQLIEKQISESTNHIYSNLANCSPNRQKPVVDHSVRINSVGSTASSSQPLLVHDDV
COND: at 1 µM
Tag: 1 if measured inhibition is not below 2%, 0 if it is.

CHEM_SMILES | DISCRETE_LABEL
CS(=O)(=O)CCNCc1ccc(-c2ccc3ncnc(Nc4ccc(OCc5ccccc5)c(Br)c4)c3c2)o1 | 1
COc1ccc(C2=C(N3CCc4ccccc43)C(=O)NC2=O)cc1 | 1
CCc1cccc(CC)c1/C=C/c1cncc(C(=O)NC)c1 | 0
NS(=O)(=O)c1ccc(N/N=C2\C(=O)Nc3ccc(-c4cnco4)cc32)cc1 | 1
Cc1ccc(NC(=O)c2ccoc2)cc1-c1ccc(C(=O)NCC2CC2)cc1 | 0
O=C(Nc1n[nH]c2cc(-c3ccccc3)ccc12)C1CC1 | 1
NC(=O)Cc1ccccc1Oc1nccc(-c2c(-c3ccc(F)cc3)ncn2C2CCNCC2)n1 | 0
C/C(Nc1ccc(S(N)(=O)=O)cc1)=C1/C(=O)Nc2ccccc21 | 1
Cc1ccc(C(=O)NC2CCC2)cc1-c1ccc(C(=O)NCC2CC2)cc1 | 1
